The reported measurements were obtained from the supplement of paper PMC6757056.

Property: normalized RNA/DNA level with ligand (log10); scope: individual variants
B1: library; a variant is named by its letters at N, in order (parent)
chain: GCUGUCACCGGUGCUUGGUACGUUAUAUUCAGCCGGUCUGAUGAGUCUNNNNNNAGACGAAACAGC

# Variants of: B1
# test.method.notes: normalized RNA/DNA level with ligand (relative to sTRSVctl = 100) (log10 (% of sTRSVctl)); HEK293T overexpressing SLC46A1; ligand concentration (+) RNA-Seq: 6 mM; higher = less ribozyme self-cleavage, higher mRNA level
# assay.context: with (6R,S)-folinic acid; ligand present: yes
Give your answer as a number; write no unit.

INPUT: Look at this variant and give its reported normalized RNA/DNA level with ligand (log10). GCUGUCACCGGUGCUUGGUACGUUAUAUUCAGCCGGUCUGAUGAGUCUUAUGUCAGACGAAACAGC [UAUGUC]
OUTPUT: 2.01

INPUT: Query: normalized RNA/DNA level with ligand (log10); subject: GCUGUCACCGGUGCUUGGUACGUUAUAUUCAGCCGGUCUGAUGAGUCUCCGCGGAGACGAAACAGC [CCGCGG]
OUTPUT: 2.02

INPUT: Please report the recorded normalized RNA/DNA level with ligand (log10) for GCUGUCACCGGUGCUUGGUACGUUAUAUUCAGCCGGUCUGAUGAGUCUAGAUCCAGACGAAACAGC [AGAUCC] .
OUTPUT: 2.03

INPUT: Returns the measured normalized RNA/DNA level with ligand (log10) for the input variant. Input: GCUGUCACCGGUGCUUGGUACGUUAUAUUCAGCCGGUCUGAUGAGUCUCGUCCUAGACGAAACAGC [CGUCCU]
OUTPUT: 2.06

INPUT: Quick one: normalized RNA/DNA level with ligand (log10) for GCUGUCACCGGUGCUUGGUACGUUAUAUUCAGCCGGUCUGAUGAGUCUUUUAUCAGACGAAACAGC [UUUAUC] ?
OUTPUT: 2.06

INPUT: For GCUGUCACCGGUGCUUGGUACGUUAUAUUCAGCCGGUCUGAUGAGUCUCUGGAUAGACGAAACAGC [CUGGAU] , what is its reported normalized RNA/DNA level with ligand (log10)?
OUTPUT: 2.02

---
INPUT: What does the record list as normalized RNA/DNA level with ligand (log10) for GCUGUCACCGGUGCUUGGUACGUUAUAUUCAGCCGGUCUGAUGAGUCUGGAACUAGACGAAACAGC [GGAACU] ?
OUTPUT: 2.03

INPUT: Request the reported normalized RNA/DNA level with ligand (log10) associated with GCUGUCACCGGUGCUUGGUACGUUAUAUUCAGCCGGUCUGAUGAGUCUGCGCUGAGACGAAACAGC [GCGCUG]
OUTPUT: 2.1

INPUT: Given GCUGUCACCGGUGCUUGGUACGUUAUAUUCAGCCGGUCUGAUGAGUCUCCUUACAGACGAAACAGC [CCUUAC] , state its recorded normalized RNA/DNA level with ligand (log10).
OUTPUT: 2.06

INPUT: Look at this variant and give its reported normalized RNA/DNA level with ligand (log10). GCUGUCACCGGUGCUUGGUACGUUAUAUUCAGCCGGUCUGAUGAGUCUCUAUAAAGACGAAACAGC [CUAUAA]
OUTPUT: 1.98

INPUT: // query normalized RNA/DNA level with ligand (log10) value for entry GCUGUCACCGGUGCUUGGUACGUUAUAUUCAGCCGGUCUGAUGAGUCUGACGCGAGACGAAACAGC [GACGCG]
OUTPUT: 2.03

INPUT: Using the record for GCUGUCACCGGUGCUUGGUACGUUAUAUUCAGCCGGUCUGAUGAGUCUCAAGAGAGACGAAACAGC [CAAGAG] , report its normalized RNA/DNA level with ligand (log10).
OUTPUT: 1.98

INPUT: # get_value(readout='normalized RNA/DNA level with ligand (log10)', item= GCUGUCACCGGUGCUUGGUACGUUAUAUUCAGCCGGUCUGAUGAGUCUAGUGCUAGACGAAACAGC [AGUGCU] )
OUTPUT: 2.03

INPUT: Could you share which normalized RNA/DNA level with ligand (log10) value was measured for GCUGUCACCGGUGCUUGGUACGUUAUAUUCAGCCGGUCUGAUGAGUCUGUCAAGAGACGAAACAGC [GUCAAG] ?
OUTPUT: 2.03

INPUT: Give the measured normalized RNA/DNA level with ligand (log10) of GCUGUCACCGGUGCUUGGUACGUUAUAUUCAGCCGGUCUGAUGAGUCUGCCUAAAGACGAAACAGC [GCCUAA] .
OUTPUT: 2.02

INPUT: If you can, please state the reported normalized RNA/DNA level with ligand (log10) value of GCUGUCACCGGUGCUUGGUACGUUAUAUUCAGCCGGUCUGAUGAGUCUGAUGUUAGACGAAACAGC [GAUGUU] .
OUTPUT: 2.01

INPUT: Please report the recorded normalized RNA/DNA level with ligand (log10) for GCUGUCACCGGUGCUUGGUACGUUAUAUUCAGCCGGUCUGAUGAGUCUCUGAAUAGACGAAACAGC [CUGAAU] .
OUTPUT: 1.99

INPUT: Item under review: GCUGUCACCGGUGCUUGGUACGUUAUAUUCAGCCGGUCUGAUGAGUCUUGUGCCAGACGAAACAGC [UGUGCC] . Reported normalized RNA/DNA level with ligand (log10)?
OUTPUT: 2.06
